Tested on: Pseudomonas aeruginosa PAO1
Assay: ≥ marks a high value that may be exact or a test limit, other limits are often not marked, values filed in µg/mL are converted to µM
Could you please report measured MIC for the items listed next?
Your answer is read as µM, so omit the unit and give the number.

May I ask what MIC has been recorded for CC[C@H](C)[C@H](NC(=O)[C@@H](N)Cc1ccccc1)C(=O)N[C@@H](CCCCN)C(=O)N[C@@H](Cc1c[nH]c2ccccc12)C(=O)N[C@@H](CCCCN)C(=O)N[C@@H](CCCCN)C(=O)N[C@@H](CCCN=C(N)N)C(=O)N[C@@H](Cc1c[nH]c2ccccc12)C(=O)N[C@@H](Cc1c[nH]c2ccccc12)C(=O)N[C@@H](CCCCN)C(=O)N[C@@H](CCCCN)C(=O)N[C@@H](CCCN=C(N)N)C(=O)N[C@H](C(N)=O)[C@@H](C)O ?
4

And what about the molecule CC[C@H](C)[C@H](NC(=O)[C@@H](NC(=O)[C@H](Cc1cnc[nH]1)NC(=O)[C@@H](NC(=O)[C@@H](NC(=O)[C@H](CCCCN)NC(=O)[C@H](CCCN=C(N)N)NC(=O)[C@@H](NC(=O)[C@@H](NC(=O)[C@@H](N)CCCN=C(N)N)[C@@H](C)CC)[C@@H](C)CC)[C@@H](C)CC)[C@@H](C)CC)[C@@H](C)CC)C(N)=O ?
7.85

Try C[C@H](NC(=O)[C@H](C)NC(=O)[C@H](Cc1ccccc1)NC(=O)[C@H](C)NC(=O)[C@H](C)NC(=O)[C@H](Cc1c[nH]c2ccccc12)NC(=O)[C@H](C)NC(=O)[C@H](C)NC(=O)[C@H](Cc1ccccc1)NC(=O)[C@H](C)NC(=O)[C@H](C)NC(=O)[C@H](CCCCN)NC(=O)[C@H](CCCCN)NC(=O)[C@H](CCCCN)NC(=O)[C@H](CCCCN)NC(=O)[C@H](CCCCN)NC(=O)[C@@H](N)CCCCN)C(N)=O next.
12.5

The origin of these recorded values is DBAASP.
